Values compiled from patent US12582720B2.

As shown below, each of these compounds has a reported Kd value.
- assay-system: LC3B (Homo sapiens, UniProt Q9GZQ8)
- assay-method-text: MST detection of affinity activity with LC3B
- Type: binding
- Set-up: His8 (with TEV site) (N); made in house; host or cells: Escherichia coli BL21(DE3)pLysS
- conditions-used: MST; read-out: Kd, equilibrium dissociation constant between the LC3 binding compound and LC3B
measurement-label: Kd

# compound, recorded-result
records = [
    ("CC(C)(C)c1cc(NC(=O)Nc2ccc(-c3cn4c(n3)sc3cc(OCCN5CCOCC5)ccc34)cc2)no1", "21.3 µM"),
    ("COc1ccc(-c2cc(=O)oc3c(C)c(O)c(CN(C)C)cc23)cc1", "0.672 µM"),
    ("Cc1csc(-c2nnc(Nc3ccc(Oc4ncccc4-c4ccnc(N)n4)cc3)c3ccccc23)c1", "5.19 µM"),
    ("Nc1ncnc2c1c(-c1cccc(OCc3ccccc3)c1)cn2C1CC(CN2CCCC2)C1 (stereo not shown)", "3.98 µM"),
    ("O=C1Nc2ccc(I)cc2C1=Cc1cc(Br)c(O)c(Br)c1 [Compound A1, reference compound]", "4.76 µM"),
    ("COCC(=O)NC/C=C/c1ccc2ncnc(Nc3ccc(Oc4ccc(C)cc4)c(C)c3)c2c1", "2.78 µM"),
    ("O=C(O)c1cc2ccc(O)cc2oc1=O", "3 µM"),
]

* * *

- assay-system: UniProt Q9GZQ8
- assay-method-text: MST detection of affinity activity with LC3B
- Assay type: binding
- Design: His8 (with TEV site) (N); made in house; host or cells: Escherichia coli BL21(DE3)pLysS
pKd: −log10 of the molar value.
measurement-label: pKd

# given-smiles, recorded-result
rows = [
    ("Cc1ccc(C(=O)N(CCCN)[C@@H](c2nc3cc(Cl)ccc3c(=O)n2Cc2ccccc2)C(C)C)cc1", 6.34),
]

* * *

- System: autophagosome-lipid droplet colocalization in MEF cells
- assay-method-text: Colocalization of autophagosome and lipid droplets in mCherry-LC3B transfected MEF cells
- Format: cell-based, mouse
- conditions-used: 5 μM, 3 h, compared to DMSO control
measurement-label: ratio of colocalization of red and green aggregation point (autophagosome-lipid droplet)

# molecule, recorded-result
rows = [
    ("Cc1ccccc1/N=N/c1ccc(/N=N/c2c(O)ccc3ccccc23)c(C)c1 [Sudan IV, reference compound]", "No such effect"),
    ("Cc1ccccc1/N=N/c1ccc(/N=N/c2c(OCCCCCCCCCCOc3cc(O)cc4oc(=O)cc(-c5ccccc5)c34)ccc3ccccc23)c(C)c1 [Compound 2A]", "significantly increased"),
    ("O=c1cc(-c2ccccc2)c2c(OCCCCCCCCCCOc3ccc4ccccc4c3/N=N/c3ccc(/N=N/c4ccccc4)cc3)cc(O)cc2o1 [Compound 4A]", "significantly increased"),
    ("O=C1Nc2ccc(I)cc2C1=Cc1cc(Br)c(O)c(Br)c1 [Compound A1, reference compound]", "No such effect"),
]
